molecular target: L-type calcium channel (Rattus norvegicus); construct: membrane fragments of rat cardiac muscle; from tissue; host or cells: rat cardiac muscle membranes; test: Competition binding of [3H]nitrendipine to membrane fragments of rat cardiac muscle; settings: [3H]nitrendipine, rat cardiac muscle membranes; SEM and n in lines below; read-out: pKi Ca (converted)
Sequence (P22002 whole entry, other chains not shown, the tested form may be a part): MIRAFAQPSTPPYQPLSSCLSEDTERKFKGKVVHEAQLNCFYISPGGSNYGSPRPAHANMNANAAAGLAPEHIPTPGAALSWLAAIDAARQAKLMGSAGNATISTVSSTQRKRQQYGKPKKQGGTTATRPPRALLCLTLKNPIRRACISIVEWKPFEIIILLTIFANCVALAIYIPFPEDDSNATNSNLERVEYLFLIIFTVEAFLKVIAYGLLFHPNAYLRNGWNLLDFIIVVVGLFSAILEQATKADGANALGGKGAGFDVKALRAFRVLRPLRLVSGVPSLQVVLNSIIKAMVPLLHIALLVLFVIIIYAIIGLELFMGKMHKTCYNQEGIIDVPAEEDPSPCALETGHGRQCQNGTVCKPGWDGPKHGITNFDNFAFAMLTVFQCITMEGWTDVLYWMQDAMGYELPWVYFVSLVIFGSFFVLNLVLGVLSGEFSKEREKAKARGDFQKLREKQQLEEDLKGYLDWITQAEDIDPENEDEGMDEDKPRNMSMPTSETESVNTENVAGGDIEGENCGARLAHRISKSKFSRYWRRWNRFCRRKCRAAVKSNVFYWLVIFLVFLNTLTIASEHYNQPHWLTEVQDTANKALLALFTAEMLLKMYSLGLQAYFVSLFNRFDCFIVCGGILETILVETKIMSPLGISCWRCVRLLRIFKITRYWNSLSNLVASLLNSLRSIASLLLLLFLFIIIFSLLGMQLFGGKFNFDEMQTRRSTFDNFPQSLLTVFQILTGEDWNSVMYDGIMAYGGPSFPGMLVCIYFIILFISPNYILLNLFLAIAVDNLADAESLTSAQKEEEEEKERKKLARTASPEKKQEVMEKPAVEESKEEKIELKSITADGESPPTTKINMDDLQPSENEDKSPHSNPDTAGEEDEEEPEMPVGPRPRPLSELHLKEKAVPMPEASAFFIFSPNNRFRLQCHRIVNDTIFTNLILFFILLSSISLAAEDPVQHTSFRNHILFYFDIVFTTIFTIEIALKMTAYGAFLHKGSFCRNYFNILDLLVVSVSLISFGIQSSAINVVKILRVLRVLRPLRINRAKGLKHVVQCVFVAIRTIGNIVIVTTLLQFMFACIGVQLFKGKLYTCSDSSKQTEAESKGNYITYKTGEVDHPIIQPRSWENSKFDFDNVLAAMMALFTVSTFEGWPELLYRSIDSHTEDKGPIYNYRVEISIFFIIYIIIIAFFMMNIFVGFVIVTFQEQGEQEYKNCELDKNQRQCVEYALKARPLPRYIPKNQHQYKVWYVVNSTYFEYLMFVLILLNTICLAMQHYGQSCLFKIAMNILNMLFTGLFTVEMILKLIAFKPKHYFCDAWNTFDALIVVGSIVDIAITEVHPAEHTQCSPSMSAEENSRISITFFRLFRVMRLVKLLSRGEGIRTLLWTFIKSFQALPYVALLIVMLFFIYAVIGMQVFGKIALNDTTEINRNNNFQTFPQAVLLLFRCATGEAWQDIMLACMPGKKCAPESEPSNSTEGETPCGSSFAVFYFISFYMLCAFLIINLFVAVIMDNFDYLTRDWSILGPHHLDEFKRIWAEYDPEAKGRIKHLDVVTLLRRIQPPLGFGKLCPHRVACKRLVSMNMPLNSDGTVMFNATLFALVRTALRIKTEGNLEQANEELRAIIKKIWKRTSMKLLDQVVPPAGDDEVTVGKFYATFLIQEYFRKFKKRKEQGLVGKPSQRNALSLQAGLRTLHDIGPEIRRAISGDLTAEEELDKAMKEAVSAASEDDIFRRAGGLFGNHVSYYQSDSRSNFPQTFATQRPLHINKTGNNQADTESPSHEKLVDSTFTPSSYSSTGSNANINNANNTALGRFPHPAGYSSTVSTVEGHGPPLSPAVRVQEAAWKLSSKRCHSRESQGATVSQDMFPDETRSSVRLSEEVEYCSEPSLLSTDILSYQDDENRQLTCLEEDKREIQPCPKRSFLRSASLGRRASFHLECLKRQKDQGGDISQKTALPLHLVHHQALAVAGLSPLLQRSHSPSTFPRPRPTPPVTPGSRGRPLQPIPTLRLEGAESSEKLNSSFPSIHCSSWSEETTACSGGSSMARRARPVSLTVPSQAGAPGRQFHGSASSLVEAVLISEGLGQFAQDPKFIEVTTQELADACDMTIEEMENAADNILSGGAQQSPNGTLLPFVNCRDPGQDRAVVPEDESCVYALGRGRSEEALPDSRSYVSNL
Sequence (P54290 25-944 partner limits assumed, other chains not shown): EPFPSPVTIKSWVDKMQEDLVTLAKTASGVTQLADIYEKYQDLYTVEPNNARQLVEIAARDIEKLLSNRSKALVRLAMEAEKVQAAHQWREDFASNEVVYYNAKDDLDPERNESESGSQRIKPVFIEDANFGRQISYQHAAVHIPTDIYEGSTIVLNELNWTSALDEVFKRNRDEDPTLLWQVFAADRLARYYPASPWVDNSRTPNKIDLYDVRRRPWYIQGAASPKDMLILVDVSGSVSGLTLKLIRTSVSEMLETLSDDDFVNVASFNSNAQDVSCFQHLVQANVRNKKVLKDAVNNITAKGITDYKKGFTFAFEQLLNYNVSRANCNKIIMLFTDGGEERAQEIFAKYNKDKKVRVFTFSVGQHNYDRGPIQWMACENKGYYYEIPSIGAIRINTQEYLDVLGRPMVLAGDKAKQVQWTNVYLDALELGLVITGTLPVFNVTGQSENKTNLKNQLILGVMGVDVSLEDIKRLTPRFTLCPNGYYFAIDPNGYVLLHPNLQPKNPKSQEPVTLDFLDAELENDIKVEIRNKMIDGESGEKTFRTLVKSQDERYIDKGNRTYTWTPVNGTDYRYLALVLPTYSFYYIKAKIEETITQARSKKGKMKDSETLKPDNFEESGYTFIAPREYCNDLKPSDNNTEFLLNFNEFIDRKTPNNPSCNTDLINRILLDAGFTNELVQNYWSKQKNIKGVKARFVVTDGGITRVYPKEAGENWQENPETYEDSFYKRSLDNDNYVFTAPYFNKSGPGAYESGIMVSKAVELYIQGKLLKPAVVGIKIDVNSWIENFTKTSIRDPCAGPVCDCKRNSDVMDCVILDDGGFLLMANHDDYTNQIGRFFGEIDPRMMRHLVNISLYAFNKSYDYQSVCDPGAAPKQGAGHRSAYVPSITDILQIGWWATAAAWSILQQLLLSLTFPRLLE
Sequence (P54290 945-1091 partner limits assumed, other chains not shown): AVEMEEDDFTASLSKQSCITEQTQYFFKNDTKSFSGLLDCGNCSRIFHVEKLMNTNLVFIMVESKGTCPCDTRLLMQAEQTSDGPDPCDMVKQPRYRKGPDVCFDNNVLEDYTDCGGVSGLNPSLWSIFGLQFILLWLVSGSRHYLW
Counter-ions that a name gives are not always drawn.
Assign classes using reported Ki values and the ranges bin A = under 10 µM, bin B = from 10 µM up to 70 µM, bin C = 70 µM and over, please.

See these solved cases before continuing.
COC(=O)C1=C(C)NC(c2ccoc2)=C(C(=O)NCCCN2CCC(c3ccccc3)CC2)C1c1ccc([N+](=O)[O-])cc1 (centres unmarked) [Example 65, hydrochloride hydrate] | bin A
CC1=C(C(N)=O)C(c2cccc([N+](=O)[O-])c2)C(C(=O)NCCCN2CCC(c3ccccc3)CC2)=C(C)N1 (centres unmarked) | bin B
COC(=O)C1=C(C)NC(C)=C(C(=O)NCCCCN2CCC(c3ccccc3)CC2)C1c1ccc([N+](=O)[O-])cc1 (centres unmarked) [Example 3, hydrochloride hydrate] | bin C

Category of CCC1=C(C(=O)NCCCN2CCC(c3ccccc3)CC2)C(c2ccc([N+](=O)[O-])cc2)C(C(=O)OC)=C(C)N1 (centres unmarked) [Example 74, hydrochloride hydrate] :
bin A

What would you report for COC(=O)C1=C(C)NC(c2ccoc2)=C(C(=O)NCCCN2CCC(c3ccccc3)(c3ccccc3)CC2)C1c1ccc([N+](=O)[O-])cc1 (centres unmarked) [Example 43, hydrochloride salt] ?
bin B

###

Provide the reported melting point of each item.
Where a name gives a salt, the structure may show the parent alone.

Completed entries (count: 5):
CCNC(=O)C1=C(CC)NC(CC)=C(C(=O)NCCCN2CCC(C(=O)OC)(c3ccccc3)CC2)C1c1ccc([N+](=O)[O-])cc1 (centres unmarked) | 217 °C (dec.)
COC(=O)C1=C(C)NC(CCCCN)=C(C(=O)NCCCN2CCC(c3ccccc3)(c3ccccc3)CC2)C1c1ccc([N+](=O)[O-])cc1 (centres unmarked) | 89 to 93 °C
CCC1=C(C(=O)NC)C(c2ccc([N+](=O)[O-])cc2)C(C(=O)NCCCN2CCC(C(=O)OC)(c3ccccc3)CC2)=C(COCCN)N1 (centres unmarked) | 95 °C (dec.)
COC(=O)C1=C(C)NC(C)=C(C(=O)NCCCN2CCC(c3ccccc3)(c3ccccc3)CC2)C1c1ccc2c(c1)OCO2 (centres unmarked) | 197 to 200 °C
COC(=O)C1=C(C)NC(C)=C(C(=O)NCCCCN2CCC(c3ccccc3)CC2)C1c1ccc([N+](=O)[O-])cc1 (centres unmarked) (as salt: hydrochloride) (hydrate or solvate) [Example 3, hydrochloride hydrate] | 136 to 137 °C

Record melting point per entry; entries follow.
1. COC(=O)C1=C(C)NC(c2ccccc2)=C(C(=O)NCCCN2CCC(c3ccccc3)(c3ccccc3)CC2)C1c1ccc([N+](=O)[O-])cc1 (centres unmarked) (as salt: hydrochloride) (hydrate or solvate) [Example 78, hydrochloride hydrate]
2. CC1=C(C(N)=O)C(c2ccc([N+](=O)[O-])cc2)C(C(=O)NCCN2CCC(c3ccccc3)(c3ccccc3)CC2)=C(C)N1 (centres unmarked) (as salt: hydrochloride) (hydrate or solvate) [Example 54, hydrochloride hydrate]
3. COC(=O)C1=C(C)NC(C)=C(C(=O)NCCCN2CCc3cc(OC)c(OC)cc3C2)C1c1ccc([N+](=O)[O-])cc1 (centres unmarked) (as salt: hydrochloride) (hydrate or solvate) [Example 57, hydrochloride hydrate]
4. CC(=O)C1=C(C)NC(COCCN)=C(C(=O)NCCCN2CCC(c3ccccc3)(c3ccccc3)CC2)C1c1ccc(F)cc1 (centres unmarked)

1: 210 to 215 °C (dec.); 2: 193 to 194 °C; 3: 161 to 162 °C; 4: 75 °C (dec.)

Record melting point per entry; entries follow.
1. CCC1=C(C(=O)NC)C(c2ccc([N+](=O)[O-])cc2)C(C(=O)NCCCN2CCC(C(c3ccccc3)c3ccccc3)CC2)=C(CC)N1 (centres unmarked)
2. COC(=O)C1=C(C)NC(C)=C(C(=O)NCCCN2CCC(c3ccccc3)(c3ccccc3)CC2)C1c1ccncc1 (centres unmarked)

["128 °C (dec.)", "224 to 226 °C (dec.)"]

###

target: α2B receptor (Homo sapiens); construct: host or cells: LM(tk-) cells, line L-NGC-α2B; test: Competition binding, [3H]rauwolscine, human α2B receptor; conditions: [3H]rauwolscine, human receptor, LM(tk-) cell lysates; mean; read-out: PKi alpha-2 2b (converted)
Sequence (P18089 whole entry): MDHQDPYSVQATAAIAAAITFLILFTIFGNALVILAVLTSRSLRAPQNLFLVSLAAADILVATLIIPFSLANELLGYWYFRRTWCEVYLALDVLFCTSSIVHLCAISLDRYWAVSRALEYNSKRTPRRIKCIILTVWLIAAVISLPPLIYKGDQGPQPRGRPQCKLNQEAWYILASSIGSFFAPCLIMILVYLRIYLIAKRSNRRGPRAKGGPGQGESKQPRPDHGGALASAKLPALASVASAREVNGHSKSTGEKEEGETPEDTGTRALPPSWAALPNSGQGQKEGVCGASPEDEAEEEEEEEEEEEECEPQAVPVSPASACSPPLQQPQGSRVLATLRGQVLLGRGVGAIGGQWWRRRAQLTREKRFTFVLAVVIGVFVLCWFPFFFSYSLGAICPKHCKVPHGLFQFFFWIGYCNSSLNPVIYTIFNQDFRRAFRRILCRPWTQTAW
Quick rule for you: Ki under 1 µM gets label 1, anything else gets label 0.

See these solved cases before continuing.
CCOC(=O)C1=C(C)NC(C)=C(C(=O)NCCCN2CCC(C(=O)OC)(c3ccccc3)CC2)C1c1ccc([N+](=O)[O-])cc1 (stereo not drawn) [Example 208] | label 0
COC(=O)C1(c2ccccc2)CCN(CCCNC(=O)C2=C(C)NC(C)=C(C(=O)OCCO)C2c2ccc([N+](=O)[O-])cc2)CC1 (stereo not drawn) [Example 207] | label 1
COC(=O)C1(c2ccccc2)CCN(CCCNC(=O)C2=C(C)NC(C)=C(C(=O)O)C2c2ccc([N+](=O)[O-])cc2)CC1 (stereo not drawn) [Example 204] | label 0
COC(=O)C1(c2ccccc2)CCN(CCCNC(=O)C2=C(CCCCN)NC(C)=C(C(C)=O)C2c2ccc([N+](=O)[O-])cc2)CC1 (stereo not drawn) [Example 178] | label 1
CCC1=C(C(N)=O)C(c2ccc([N+](=O)[O-])cc2)C(C(=O)NCCCN2CCC(C(=O)OC)(c3ccccc3)CC2)=C(COCCN)N1 (stereo not drawn) [Example 234] | label 0
CCOC(=O)C1(c2ccccc2)CCN(CCCNC(=O)C2=C(COCCN)NC(CC)=C(C(=O)NC)C2c2ccc([N+](=O)[O-])cc2)CC1 (stereo not drawn) [Example 194] | label 0
CCC1=C(C(N)=O)C(c2ccc([N+](=O)[O-])cc2)C(C(=O)NCCCN2CCC(C(=O)OC)(c3ccccc3)CC2)=C(CCCCN=[N+]=[N-])N1 (stereo not drawn) [Example 165] | label 0
CCNC(=O)C1=C(CC)NC(COCCN)=C(C(=O)NCCCN2CCC(C(=O)OCC)(c3ccccc3)CC2)C1c1ccc([N+](=O)[O-])cc1 (stereo not drawn) [Example 192] | label 0

A record lists CCC1=C(C(=O)NC)C(c2ccc([N+](=O)[O-])cc2)C(C(=O)NCCCN2CCC(C(=O)OC)(c3ccccc3)CC2)=C(COCCN)N1 (stereo not drawn) [Example 229] . Is its Ki below 1 µM?
label 0

What would you report for COC(=O)C1(c2ccccc2)CCN(CCCNC(=O)C2=C(C)NC(C)=C(C(N)=O)C2c2ccc([N+](=O)[O-])cc2)CC1 (stereo not drawn) [Example 198] ?
label 0

What would you report for CCOC(=O)C1(c2ccccc2)CCN(CCCNC(=O)C2=C(C)NC(C)=C(C(C)=O)C2c2ccc([N+](=O)[O-])cc2)CC1 (racemic) [Example 202] ?
label 1

What would you report for COC(=O)C1(c2ccccc2)CCN(CCCNC(=O)C2=C(COCCN=[N+]=[N-])NC(C)=C(C(N)=O)C2c2ccc([N+](=O)[O-])cc2)CC1 (stereo not drawn) [Example 183] ?
label 1

###

Provide the reported log10(Ki) of each item.
Target: α2A receptor (Homo sapiens, UniProt P08913)
Construct: host or cells: LM(tk-) cells, line L-α2A
Sequence (P08913 whole entry): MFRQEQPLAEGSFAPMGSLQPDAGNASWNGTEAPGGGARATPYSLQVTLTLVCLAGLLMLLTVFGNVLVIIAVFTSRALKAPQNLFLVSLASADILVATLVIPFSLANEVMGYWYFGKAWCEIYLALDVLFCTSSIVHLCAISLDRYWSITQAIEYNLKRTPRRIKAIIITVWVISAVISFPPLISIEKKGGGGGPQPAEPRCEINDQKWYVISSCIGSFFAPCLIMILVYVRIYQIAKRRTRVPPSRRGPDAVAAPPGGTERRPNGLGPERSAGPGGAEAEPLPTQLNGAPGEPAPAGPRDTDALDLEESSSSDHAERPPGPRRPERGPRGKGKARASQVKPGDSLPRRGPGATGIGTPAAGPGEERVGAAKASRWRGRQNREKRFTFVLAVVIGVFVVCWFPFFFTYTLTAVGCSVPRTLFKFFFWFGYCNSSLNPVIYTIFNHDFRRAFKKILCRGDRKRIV
Test: Competition binding, [3H]rauwolscine, human α2A receptor
Method: The protocols for these experiments are given below. α2 Human Adrenergic Receptors: To determine the potency of […], antagonists at the α2 receptors, LM(tk−) cell lines stably transfected with the genes encoding the α2A, α2B, and α2C receptors were used. The cell line expressing the α2A receptor is designated L-α2A, and was deposited on Nov. […] Equilibrium competition binding assay were performed using [3H]rauwolscine (0.5 nM), and nonspecific binding was determined by incubation with 10 μM phentolamine. […]
Where a name gives a salt, the structure may show the parent alone.
Log10 applied to Ki; unit prior to transform: nM.

Completed entries (count: 4):
CCOC(=O)C1(c2ccccc2)CCN(CCCNC(=O)C2=C(COC)NC(CC)=C(C(=O)O)C2c2ccc([N+](=O)[O-])cc2)CC1 (stereo not drawn) [Example 240] | 4.27
CCC1=C(C(N)=O)C(c2ccc([N+](=O)[O-])cc2)C(C(=O)NCCCN2CCC(c3ccc(OC)cc3)(c3ccc(OC)cc3)CC2)=C(CC)N1 (stereo not drawn) [Example 103, hydrochloride] | 2.69
COC(=O)C1=C(C)NC(C)=C(C(=O)NCCCN2CCC(c3ccccc3)(c3ccccc3)CC2)C1c1ccc2c(c1)OCO2 (stereo not drawn) [Example 11] | 3.05
CCC1=C(C(=O)NCCCN2CCC(c3ccccc3)(c3ccccc3)CC2)C(c2ccc([N+](=O)[O-])cc2)C(C(=O)OC)=C(C)N1 (stereo not drawn) [Example 73] | 2.90

Record log10(Ki) per entry; entries follow.
1. CC1=C(C#N)C(c2ccc([N+](=O)[O-])cc2)C(C(=O)NCCCN2CCC(c3ccccc3)(c3ccccc3)CC2)=C(C)N1 (stereo not drawn) [Example 37]
2. COC(=O)C1=C(C)NC(C)=C(C(=O)N(C)CCCN2CCC(c3ccccc3)(c3ccccc3)CC2)C1c1ccc([N+](=O)[O-])cc1 (stereo not drawn) [Example 46, hydrochloride hemihydrate]
3. COC(=O)C1=C(C)N(C)C(C)=C(C(=O)OCCCN2CCC(c3ccccc3)(c3ccccc3)CC2)C1c1ccc([N+](=O)[O-])cc1 (stereo not drawn) [Example 92, hydrochloride hydrate]
4. COC(=O)C1=C(C)NC(c2ccccc2)=C(C(=O)NCCCN2CCC(c3ccccc3)(c3ccccc3)CC2)C1c1ccc([N+](=O)[O-])cc1 (stereo not drawn) [Example 78, hydrochloride hydrate]
5. COC(=O)C1=C(C)NC(C)=C(C(=O)NCCCN2CCC(c3ccccc3)(c3ccccc3)CC2)C1c1ccc(I)cc1 (stereo not drawn) [Example 13]
6. COC(=O)C1=C(C)NC(C)=C(C(=O)NCCCN2CCC(c3ccccc3)(c3ccccc3)CC2)C1C1CCCCC1 (stereo not drawn) [Example 6]
7. COC(=O)C1(c2ccccc2)CCN(CCCNC(=O)C2=C(COCCCN)NC(C)=C(C(C)=O)C2c2ccc([N+](=O)[O-])cc2)CC1 (stereo not drawn) [Example 241]

1: 2.85; 2: 2.83; 3: 3.50; 4: 2.86; 5: 3.10; 6: 2.92; 7: 3.20

Record log10(Ki) per entry; entries follow.
1. COC(=O)C1(c2ccccc2)CCN(CCCNC(=O)C2=C(CCCCN)NC(C)=C(C(N)=O)C2c2ccc([N+](=O)[O-])cc2)CC1 (stereo not drawn) [Example 177]
2. COC(=O)C1=C(C)NC(C)=C(C(=O)NCCCN2CCC(c3ccccc3)(c3ccccc3)CC2)C1c1ccc(Cl)cc1 (stereo not drawn) [Example 10]
3. COC(=O)C1=C(C)NC(C)=C(C(=O)NCCCN2CCC(c3ccccc3)(c3ccccc3)CC2)C1c1ccc(Br)cc1 (stereo not drawn) [Example 15]

[3.22, 3.37, 3.39]

Record log10(Ki) per entry; entries follow.
1. CCC1=C(C(=O)NC)C(c2ccc([N+](=O)[O-])cc2)C(C(=O)NCCCN2CCC(C(=O)OC)(c3ccccc3)CC2)=C(CC)N1 (stereo not drawn) [Example 179]
2. CC1=C(C(N)=O)C(c2ccc([N+](=O)[O-])cc2)C(C(=O)NCCCN2CCC(C(=O)O)(c3ccccc3)CC2)=C(C)N1 (stereo not drawn) [Example 210]
3. CCC1=C(C(N)=O)C(c2ccc([N+](=O)[O-])cc2)C(C(=O)NCCCN2CCC3(CC2)C(=O)NCN3c2ccccc2)=C(CC)N1 (stereo not drawn) [Example 105, hydrochloride hydrate]
4. COC(=O)C1=C(C)NC(CCCCN)=C(C(=O)NCCCN2CCC(c3ccccc3)(c3ccccc3)CC2)C1c1ccc([N+](=O)[O-])cc1 (stereo not drawn) [Example 170]
5. COC(=O)C1=C(C)NC(C)=C(C(=O)NCCCN2CCC(c3ccccc3)(c3ccccc3)CC2)C1c1ccc(C(C)C)cc1 (stereo not drawn) [Example 18]
6. COC(=O)C1=C(C)NC(C)=C(C(=O)NCCCN2CCC(c3ccccc3)(c3ccccc3)CC2)C1c1ccncc1 (stereo not drawn) [Example 5]
7. CCC1=C(C(=O)OC)C(c2ccc([N+](=O)[O-])cc2)C(C(=O)NCCCN2CCC(C(=O)OC)(c3ccccc3)CC2)=C(COCCN)N1 (stereo not drawn) [Example 235]

1: 3.52; 2: 4.04; 3: 3.10; 4: 3.79; 5: 3.33; 6: 3.35; 7: 3.38

Record log10(Ki) per entry; entries follow.
1. COC(=O)C1=C(C)NC(C)=C(C(=O)NCCCN2CCC(c3ccccc3)(c3ccccc3)CC2)C1c1cc(OC)c(OC)c(OC)c1 (stereo not drawn) [Example 27]
2. COC(=O)C1=C(C)NC(C)=C(C(=O)NCCCN2CCC(c3ccccc3)(c3ccccc3)CC2)C1c1ccc(C#N)cc1 (stereo not drawn) [Example 12]
3. CCOC(=O)C1(c2ccccc2)CCN(CCCNC(=O)C2=C(COCCN)NC(CC)=C(C(=O)OC)C2c2ccc([N+](=O)[O-])cc2)CC1 (stereo not drawn) [Example 197]

1: 3.29; 2: 2.89; 3: 3.17
